target: E. faecium γ-CA (Efγ-CA) (Enterococcus faecium); test: biochemical; assay type: biochemical; conditions: recombinant Efγ-CA; Ki from IC50 via Cheng–Prusoff; read-out: Ki Efγ-CA
Sequence (Q3XX77 entry or part of it): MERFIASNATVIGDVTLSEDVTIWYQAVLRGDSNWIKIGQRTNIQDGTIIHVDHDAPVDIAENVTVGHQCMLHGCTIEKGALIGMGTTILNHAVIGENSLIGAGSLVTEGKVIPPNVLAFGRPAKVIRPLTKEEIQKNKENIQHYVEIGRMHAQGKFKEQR
pKi: −log10 of the molar value.
VALUE KIND: pKi

> print(dat)
                                   compound                       experimental.target  numeric.readout
1           CCCCCCC(=O)Nc1nnc(S(N)(=O)=O)s1  E. faecium γ-CA (Efγ-CA) (Enterococcus faecium)             6.20
2  CC1CCC(C(=O)Nc2nnc(S(N)(=O)=O)s2)CC1 (centres unmarked)  E. faecium γ-CA (Efγ-CA) (Enterococcus faecium)             6.46
3        NS(=O)(=O)c1nnc(NC(=O)CN2CCCCC2)s1  E. faecium γ-CA (Efγ-CA) (Enterococcus faecium)             6.96

A = NS(=O)(=O)c1nnc(NC(=O)CN2CCCC2)s1
B = NS(=O)(=O)c1nnc(NC(=O)CC2CC2)s1
Q: Endpoint returns whichever of A and B has the numerically higher pKi. Please respond with the label that marks your chosen entry.
Ans: A
(A: 7.03, B: 6.51)
